# measuredOn: Recombinant human renin (Homo sapiens)
# Sequence (P00797 67-406): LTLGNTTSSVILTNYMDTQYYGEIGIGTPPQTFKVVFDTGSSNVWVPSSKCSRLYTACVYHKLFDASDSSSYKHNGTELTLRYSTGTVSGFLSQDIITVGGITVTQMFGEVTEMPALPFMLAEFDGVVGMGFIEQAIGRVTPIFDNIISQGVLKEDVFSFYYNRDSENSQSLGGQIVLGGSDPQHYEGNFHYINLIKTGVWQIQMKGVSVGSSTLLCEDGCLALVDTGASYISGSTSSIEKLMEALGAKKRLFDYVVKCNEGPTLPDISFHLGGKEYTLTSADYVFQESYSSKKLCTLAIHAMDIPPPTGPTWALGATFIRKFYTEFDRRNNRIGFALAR
# assayDetails: Inhibitory activity against human renin (fluorogenic peptide substrate)
# Assay type: biochemical
# particulars: 50% inhibitory concentration (IC50) against human renin, 37° C. for 1 hour
# Method: Inhibitory Activity Against Human Renin A substrate of synthetic peptide (Nma-KHPFH LVIHK(Dnp)-NH2) and test compound were mixed, and fluorescence intensity was assayed using a fluorophotometer before starting an enzymatic reaction (exciting wavelength: 340 nm, measuring wavelength: 460 nm). […]
measuredMetric: IC50 (nM)
Report only the number, with the unit nM understood.

Answered cases to consult:
[[record]]
substancesmiles = "COC(=O)NCCCc1cc([C@H](C)N(C(=O)[C@H]2CNC[C@@H](CC#N)O2)C2CC2)cc(OC)n1"
readingunit = "nM"
observedresult = 1.4

[[record]]
substancesmiles = "COC(=O)NCCCc1cc([C@@H](C)N(C(=O)[C@H]2CNCCO2)C2CC2)sc1-c1cc(C(=O)OC)cc(C(F)(F)F)c1"
readingunit = "nM"
observedresult = 2.6

[[record]]
substancesmiles = "COC(=O)NCCCn1nc([C@@H](C)N(C(=O)[C@H]2CNCCO2)C2CC2)cc1-c1ncccc1F"
readingunit = "nM"
observedresult = 0.3

[[record]]
substancesmiles = "COC(=O)NCCCc1cc([C@@H](C)N(C(=O)[C@H]2CNCCO2)C2CC2)sc1-c1ccccc1-c1cc(O)no1"
readingunit = "nM"
observedresult = 0.4

[[record]]
substancesmiles = "COC(=O)NCCCn1nc([C@@H](C)N(C(=O)[C@H]2CNCCO2)C2CC2)nc1-c1ccc(C)cc1"
readingunit = "nM"
observedresult = 1.3

[[record]]
substancesmiles = "COC(=O)NCCCc1cc([C@@H](C)N(C(=O)[C@H]2CNCCO2)C2CC2)sc1C(C)=O"
readingunit = "nM"
observedresult = 0.8


Req: May I ask what IC50 has been recorded for "COC(=O)NCCCc1cc([C@@H](C)N(C(=O)[C@H]2CNCCO2)C2CC2)sc1-c1ccccc1-c1nnn[nH]1" ?
Resp: 0.5

Req: May I ask what IC50 has been recorded for "COC(=O)NCCCc1cc([C@@H](C)N(C(=O)[C@H]2CNCCO2)C2CC2)sc1-c1ccccc1CNS(=O)(=O)C(F)(F)F" ?
Resp: 1.3

Req: May I ask what IC50 has been recorded for "CCc1cc(CCCNC(=O)OC)cc([C@@H](C)N(C(=O)[C@H]2CNCCO2)C2CC2)n1" ?
Resp: 1.7

* * *

# measuredOn: Recombinant human renin (Homo sapiens)
# assayDetails: Inhibitory activity against human renin (fluorogenic peptide substrate)
# Assay type: biochemical
# particulars: 50% inhibitory concentration (IC50) against human renin, 37° C. for 1 hour
measuredMetric: log10 IC50 (log10 of the value in nM)
# values: log10(IC50), units nM

Answered cases to consult:
[[record]]
molecule = "CCc1cc(CCCNC(=O)OC)nc([C@@H](C)N(C(=O)[C@H]2CNCCO2)C2CC2)n1"
measuredon = "Recombinant human renin (Homo sapiens)"
observedresult = 0.60

[[record]]
molecule = "COC(=O)NCCCn1cc([C@@H](C)N(C(=O)[C@H]2CNCCO2)C2CC2)c2ncc(C(C)C)nc21"
measuredon = "Recombinant human renin (Homo sapiens)"
observedresult = -0.22

[[record]]
molecule = "COC(=O)NCCCc1sc([C@@H](C)N(C(=O)[C@H]2CNCCO2)C2CC2)cc1Br"
measuredon = "Recombinant human renin (Homo sapiens)"
observedresult = 0.38

[[record]]
molecule = "COC[C@H]1CO[C@@H](C(=O)N(C2CC2)[C@@H](C)c2nn(CCCNC(=O)OC)c(C3CCOCC3)c2C)CN1"
measuredon = "Recombinant human renin (Homo sapiens)"
observedresult = 0.46


Req: May I ask what log10 IC50 has been recorded for "COC(=O)NCCCc1nc([C@@H](C)N(C(=O)[C@H]2CNCCO2)C2CC2)sc1-c1ccnc(C)c1" ?
Resp: 0.23

Req: May I ask what log10 IC50 has been recorded for "COC(=O)NCCCc1cc([C@@H](C)N(C(=O)[C@H]2CNCCO2)C2CC2)nn1-c1ccc(C)cc1" ?
Resp: 0.08

Req: May I ask what log10 IC50 has been recorded for "COC(=O)NCCCc1cc([C@@H](C)N(C(=O)[C@H]2CN[C@@H](C)CO2)C2CC2)nn1-c1cccc(F)c1" ?
Resp: 0.23

Req: May I ask what log10 IC50 has been recorded for COC(=O)NCCCc1cc(C(C)N(C(=O)[C@H]2CNCCO2)C2CC2)sc1C(C)C (stereo partly drawn) ?
Resp: 0.59
